// data source = paper PMC5717350

Target: T1, AND-1 full length (human, UniProt O75717 1-1129)
T1 sequence: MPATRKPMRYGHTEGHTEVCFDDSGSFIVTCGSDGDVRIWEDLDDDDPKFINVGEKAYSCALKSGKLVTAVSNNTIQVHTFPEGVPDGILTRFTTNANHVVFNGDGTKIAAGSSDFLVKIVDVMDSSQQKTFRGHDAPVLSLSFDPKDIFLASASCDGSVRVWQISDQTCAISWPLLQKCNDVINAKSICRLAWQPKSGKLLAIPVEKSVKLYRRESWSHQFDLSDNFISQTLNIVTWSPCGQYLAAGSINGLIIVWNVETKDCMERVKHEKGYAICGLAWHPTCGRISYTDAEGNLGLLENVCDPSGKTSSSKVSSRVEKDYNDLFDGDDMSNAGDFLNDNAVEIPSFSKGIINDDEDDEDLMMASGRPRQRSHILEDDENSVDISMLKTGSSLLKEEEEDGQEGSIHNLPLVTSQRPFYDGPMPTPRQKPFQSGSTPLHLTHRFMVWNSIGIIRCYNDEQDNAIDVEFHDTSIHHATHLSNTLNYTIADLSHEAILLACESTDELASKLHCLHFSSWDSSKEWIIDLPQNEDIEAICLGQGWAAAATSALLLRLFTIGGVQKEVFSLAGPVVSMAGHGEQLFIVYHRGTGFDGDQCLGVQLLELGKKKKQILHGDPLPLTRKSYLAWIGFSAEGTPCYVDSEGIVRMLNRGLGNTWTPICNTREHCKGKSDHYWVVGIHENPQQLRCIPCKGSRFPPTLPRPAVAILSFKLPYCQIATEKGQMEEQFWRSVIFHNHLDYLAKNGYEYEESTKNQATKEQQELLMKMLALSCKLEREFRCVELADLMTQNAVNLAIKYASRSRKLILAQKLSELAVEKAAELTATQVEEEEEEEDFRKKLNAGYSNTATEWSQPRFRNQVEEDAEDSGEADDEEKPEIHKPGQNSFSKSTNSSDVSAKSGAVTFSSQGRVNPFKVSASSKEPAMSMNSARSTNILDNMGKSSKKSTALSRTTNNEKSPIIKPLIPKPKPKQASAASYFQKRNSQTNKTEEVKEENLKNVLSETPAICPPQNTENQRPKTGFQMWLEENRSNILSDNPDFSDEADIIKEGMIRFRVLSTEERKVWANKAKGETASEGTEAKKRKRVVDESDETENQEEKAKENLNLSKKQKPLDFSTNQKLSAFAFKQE
Experiment: fluorescence anisotropy; FP: 25 mM HEPES pH 7.2, 100 mM KCl, 0.5 mM TCEP, 20 nM DNA, 25 C; EMSA: 25 mM HEPES pH 7.2, 100 mM KCl, 5 mM MgCl2, TCEP, 3 uM DNA, 0.75% (so in the source) agarose gel in 0.5x Tris-borate pH 8.3, 4 C
Conditions: protein: recombinant; tags: His10-myc; chain copies: 3; label: 5' 6FAM; single strand
Recorded metric: Kd

# Binder, Observed value
records = [
    ("CTTCCGAGACCTTGCCCATCCCGTAGAACCTGTTATCCAA (ssDNA) [ssDNA 40mer (oligo A)]", "~800 nM"),
]
